molecular target: EPHB1 (UniProt P54762); test: phosphorylation enrichment, bacterial display (enrichment ratio); higher = better substrate or ligand; peptides without Tyr show the background;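 note: 11-residue human phosphosite peptides and single-mutation variants displayed on the E. coli surface, counted by deep sequencing, each peptide's frequency after selection divided by its frequency in the unselected input library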;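 note: frequency after pTyr selection over input frequency; kinase dosed for 20-30% of maximal phosphorylation in three min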
Sequence (P54762 whole entry, looked up): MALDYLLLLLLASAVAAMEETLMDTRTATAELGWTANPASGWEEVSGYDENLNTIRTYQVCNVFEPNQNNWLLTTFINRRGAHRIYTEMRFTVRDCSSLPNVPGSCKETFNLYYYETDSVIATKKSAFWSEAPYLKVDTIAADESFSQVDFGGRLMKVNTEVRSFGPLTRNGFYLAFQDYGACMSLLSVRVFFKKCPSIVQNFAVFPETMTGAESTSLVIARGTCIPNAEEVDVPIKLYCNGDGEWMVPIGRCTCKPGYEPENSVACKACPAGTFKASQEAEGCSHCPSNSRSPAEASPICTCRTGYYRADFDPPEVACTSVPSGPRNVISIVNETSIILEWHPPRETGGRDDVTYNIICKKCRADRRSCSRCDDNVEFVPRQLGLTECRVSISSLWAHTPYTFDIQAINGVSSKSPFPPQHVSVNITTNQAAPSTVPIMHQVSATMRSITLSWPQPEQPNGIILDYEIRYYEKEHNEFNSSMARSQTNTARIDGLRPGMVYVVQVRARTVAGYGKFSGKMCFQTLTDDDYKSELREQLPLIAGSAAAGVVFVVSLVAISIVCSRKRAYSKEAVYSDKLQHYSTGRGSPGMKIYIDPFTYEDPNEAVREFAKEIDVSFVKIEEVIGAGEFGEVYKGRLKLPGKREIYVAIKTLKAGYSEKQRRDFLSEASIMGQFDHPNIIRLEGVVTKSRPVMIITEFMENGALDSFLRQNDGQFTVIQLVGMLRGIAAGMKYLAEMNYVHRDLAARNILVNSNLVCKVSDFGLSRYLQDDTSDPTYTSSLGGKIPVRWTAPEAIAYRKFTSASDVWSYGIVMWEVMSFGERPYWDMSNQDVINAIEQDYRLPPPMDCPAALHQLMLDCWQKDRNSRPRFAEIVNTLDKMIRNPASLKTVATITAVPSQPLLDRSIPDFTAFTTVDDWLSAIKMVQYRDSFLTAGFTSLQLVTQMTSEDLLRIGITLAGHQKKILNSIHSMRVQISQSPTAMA
value kind: phosphorylation enrichment

ATQDNYVLEVR [PTPRZ1_Y2179_D2178N]    0.502
VVGMLYVGGLP [LAMA2_Y2886]    0.727
FSNKLYFQLEQ [PDPR_Y109_YF]    0.849
NCFKYYMSDDI [ATRX_Y204]    0.748
SLEKSYELLDG [ACTB_Y240_P243L]    0.575
VDDEIYFFRKP [PBRM1_Y1289_YF]    0.693
WDSSGYWTPEE [PAPPA2_Y908_C903W]    0.521
KGEDFYCVTCP [FHL1_Y149_H154P]    0.586
SSAAGYACLAF [MVD_Y131_YF]    0.536
TLLERYGMTEI [ACSF3_Y355]    0.415
RNFDTYTAGLS [RHBDD1_Y264_YF]    1.9

Taken from the supplement of paper PMC10065799.
